Origin of measurements: ChEMBL document CHEMBL1201862

Catalogue of GI50 readings, one per entry.
# Test system: SK-MEL-28
# methodSummary: NCI tumour cell line growth inhibition, 48 h
Activity calls are given as the source filed them. No stated cut-off is given here; in the data, active = GI50 up to about 1.1 µM and inactive = higher.
propertyLabel: GI50

# compound, endpointValue
rows = [
    ("CC(=O)c1ccc(NCc2cc(O)ccc2O)cc1", "40.3 µM (inactive)"),
    ("CC(C)C(C/C=C1/CC(CO)(COC(=O)c2ccccc2)OC1=O)C(C)C (stereo not given)", "14.1 µM (inactive)"),
    ("CCOC(=O)C1=C(C)N(NC(=O)Nc2ccccc2)C2(N)N(NC(=O)Nc3ccccc3)C(C)=C(C(=O)OCC)C12C#N (stereo not given)", "16.9 µM (inactive)"),
    ("CC(C)N1CCCOC(c2ccc([N+](=O)[O-])cc2)O1 (stereo not given)", "> 100 µM (inactive)"),
    ("CN(C)c1ccc(/C=C(\\NC(=O)c2ccccc2)c2nc3cncnc3[nH]2)cc1", "> 100 µM (inactive)"),
]

###

Catalogue of GI50 readings, one per entry.
# Test system: Malme-3M
# methodSummary: NCI tumour cell line growth inhibition, 48 h
The source made the active and inactive calls. Cut-off read from the data, not from the text of the source: active = GI50 up to about 1.1 µM and inactive = higher.
propertyLabel: GI50

# compound, systemTested, endpointValue
data = [
    ("NC1=Nc2ccccc2Sc2ccccc21", "Malme-3M", "> 100 µM (inactive)"),
    ("Cc1occc1/C(S)=N\\c1ccc(Cl)c(C(=O)OCC(F)(F)F)c1", "Malme-3M", "29.8 µM (inactive)"),
    ("Cn1cc2ccccc2c1-c1nc(N)nc(F)n1", "Malme-3M", "56.1 µM (inactive)"),
    ("COC(=O)C1(Cc2ccccc2)Cc2c(C)ccc(C)c2C1=O (stereo unspecified)", "Malme-3M", "21.4 µM (inactive)"),
    ("COC(=O)c1ccc(C(=O)OC)c2nc3cc(Cl)ccc3nc12", "Malme-3M", "> 100 µM (inactive)"),
    ("COc1cc(C[S+]([O-])c2ccc(O)cc2)cc(OC)c1OC (stereo unspecified)", "Malme-3M", "> 100 µM (inactive)"),
]

###

# Test system: SW-620
# methodSummary: NCI tumour cell line growth inhibition, 48 h
The source made the active and inactive calls. Cut-off read from the data, not from the text of the source: active = GI50 up to about 1.1 µM and inactive = higher.

# compound, GI50
rows = [
    ("CCOc1ccc(NC(=O)C(=O)C(C(=O)c2ccc3ccccc3c2)C2OC(=O)c3ccccc32)cc1 (centres undefined)", "15.6 µM (inactive)"),
    ("NC1=Nc2ccccc2Sc2ccccc21", "> 100 µM (inactive)"),
    ("Cc1cc(S(=O)(=O)Nc2nc(Nc3ccc(Cl)cc3)n[nH]2)c(S)cc1Cl", "> 100 µM (inactive)"),
    ("CCOC(=O)C12CCSC1C1(C#N)C(C#N)=CC2(N=P(c2ccccc2)(c2ccccc2)c2ccccc2)n2c(=O)n(-c3ccccc3)c(=O)n21 (centres undefined)", "64 µM (inactive)"),
    ("CC(C)c1ccc(C(O)(C(=O)O)c2ccc(C(C)C)cc2)cc1", "61.8 µM (inactive)"),
    ("C#CC1(O)CCC2[C@@H]3CCc4cc(Oc5nc(F)nc(-c6c7ccccc7cn6C)n5)ccc4C3CC[C@@]21C (some centres undefined)", "55.5 µM (inactive)"),
    ("COP(=O)(/C=C/c1cc(C(=O)OCc2ccccc2)n(S(=O)(=O)c2ccccc2)c1)OC", "> 100 µM (inactive)"),
    ("CCOc1ccc(NC(=O)C(=O)CC(=O)c2sc(NNC(C)=O)nc2C)cc1", "> 100 µM (inactive)"),
    ("CC(=O)c1c(O)nnc(-c2ccc(Cl)cc2)c1-c1ccc(Cl)cc1", "62.5 µM (inactive)"),
]
